# intrinsic clearance, rat liver microsomes per record follows
Just the number in mL/min/kg, nothing appended.

chemical_string	unit_text	quantitative_readout
Cc1cc(C)c2c(N(C)CCC(C)C)ncnc2n1	mL/min/kg	1220

Consider the molecule CCOc1ccc(Nc2ncccc2C#N)cc1 and give its recorded intrinsic clearance, rat liver microsomes. 319

Consider the molecule Cc1ccc(C)c(S(=O)(=O)N2CCCN(C3CCC3)CC2)c1 and give its recorded intrinsic clearance, rat liver microsomes. 2150

Consider the molecule CC(C)(C)C(=O)N1CCC(Cc2ccc(-c3cccs3)cc2)(C(=O)N2CCCC2)CC1 and give its recorded intrinsic clearance, rat liver microsomes. 1440

Consider the molecule COc1ccccc1CNc1n[nH]c2nc([C@H]3CCCN(CC(=O)N4CCCC4)C3)ccc12 and give its recorded intrinsic clearance, rat liver microsomes. 422

Consider the molecule O=C1CN(C(=O)c2ccc(Cl)cn2)CCN1CCc1ccccc1 and give its recorded intrinsic clearance, rat liver microsomes. 499

Consider the molecule COc1ncnc(C)c1-c1cccc(OC(C)C)c1 and give its recorded intrinsic clearance, rat liver microsomes. 1060

Consider the molecule c1cnc(NCc2cccc(-c3cccnc3)c2)nc1 and give its recorded intrinsic clearance, rat liver microsomes. 148

Consider the molecule Cc1nn(C)c2ncc(CNc3ccon3)cc12 and give its recorded intrinsic clearance, rat liver microsomes. 14.2

Consider the molecule OC1(Cn2nnc(-c3cccnc3)n2)CCCCC1 and give its recorded intrinsic clearance, rat liver microsomes. 142
